Ref: DBAASP

- System: Salmonella enterica subsp. enterica serovar Typhimurium C77-31
Parameter Measured: MIC (µM)
Value expressed in µM; do not type the unit.

Compound: CC[C@H](C)[C@H](NC(=O)[C@H](CCCN=C(N)N)NC(=O)CNC(=O)[C@@H](NC(=O)[C@@H](NC(=O)[C@H](CCCN=C(N)N)NC(=O)[C@H](CCCCN)NC(=O)[C@H](Cc1ccccc1)NC(=O)[C@H](CCC(=O)O)NC(=O)[C@H](CCCCN)NC(=O)CN)[C@@H](C)CC)C(C)C)C(=O)N[C@@H](Cc1ccc(O)cc1)C(=O)N[C@@H](CCCN=C(N)N)C(=O)N[C@@H](CC(C)C)C(=O)N[C@@H](CS)C(=O)N[C@@H](CS)C(=O)N[C@@H](CCCN=C(N)N)C(N)=O [GKEFKRIVGRIYRLCCR]
Measure Unit: µM
MIC: 8

Then this compound:
// assay Salmonella enterica subsp. enterica serovar Typhimurium C77-31, entry CC[C@H](C)[C@H](NC(=O)[C@H](Cc1c[nH]c2ccccc12)NC(=O)[C@H](CCCCN)NC(=O)[C@H](CC(C)C)NC(=O)[C@@H](NC(=O)[C@H](Cc1c[nH]c2ccccc12)NC(=O)CNC(=O)[C@@H](NC(=O)[C@H](CCCCN)NC(=O)[C@H](CCCCN)NC(=O)[C@H](CC(C)C)NC(=O)[C@@H](N)CCCN=C(N)N)[C@@H](C)CC)C(C)C)C(N)=O [RLKKIGWVLKWI] , MIC value = 4
